Target: human AT2R fused to Cb23 (Homo sapiens, UniProt P50052)
Sequence (P50052 whole entry, looked up, the tested form may be a part): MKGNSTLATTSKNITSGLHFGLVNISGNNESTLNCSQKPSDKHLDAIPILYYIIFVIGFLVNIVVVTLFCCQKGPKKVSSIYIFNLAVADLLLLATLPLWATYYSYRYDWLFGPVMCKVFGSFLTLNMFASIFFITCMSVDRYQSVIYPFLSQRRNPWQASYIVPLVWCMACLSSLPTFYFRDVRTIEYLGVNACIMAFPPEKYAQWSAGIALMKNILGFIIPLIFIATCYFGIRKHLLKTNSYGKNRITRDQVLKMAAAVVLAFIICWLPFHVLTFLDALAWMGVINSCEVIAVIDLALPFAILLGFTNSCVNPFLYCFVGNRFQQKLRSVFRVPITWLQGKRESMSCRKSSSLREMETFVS
Assay: Radioligand binding assay, displacement of 125I-[Sar1, Ile8]-Angiotensin II, hAT2R Cb23
Conditions: displacement of 125I-[Sar1, Ile8]-Angiotensin II, human AT2R fused to Cb23, HEK-293 cell membrane preparations; read-out: Binding affinity on hAT2R_Cb23 IC50
Method: All synthesized ligands were evaluated in a radioligand assay by displacing ^125I-[Sar1, Ile8]-Angiotensin II (Perkin Elmer, NEX248050UC) from human AT2R fused to Cb23 or human/rodent/cynomolgus/minipig/dog WT AT2R in HEK-293 cells membrane preparations, using C21 (Vicore Pharma) and Angiotensin II (endogenous ligand) as reference. The affinity was determined using an eight-point dose-response curve, each point performed in duplicates. […]
Overview of recorded pIC50 for various compounds
Hey, just a heads up that pIC50 is the negative log base 10 of the concentration in molar.

Look over these answered cases.
| COMPOUND | pIC50 |
| --- | --- |
| C/C=C/c1ccc(-c2nn[nH]n2)c(N2CCN(Cc3nc4ccccc4n3C)CC2)c1 [Compound A-18] | 5.41 |
| CCC1CN(Cc2cccnn2)CCN1c1cc(CC(C)C)cc(F)c1-c1nn[nH]n1 (stereo not shown) [Compound A-181] | 7.83 |
| CCNc1ccc(C(=O)NS(=O)(=O)CC)c(N2CCN(Cc3nc4ccccc4s3)CC2)c1 [Compound A-44] | 5.14 |

We now examine a further compound.
For the compound CC(C)Cc1cc(F)c(-c2nn[nH]n2)c(N2CCN(Cc3cccnn3)[C@@H](C)C2)c1 [Compound A-174] , what pIC50 is on record?
8.63
